Origin of values: paper PMC9571063

measured.target: Hs_PIM1 (Homo sapiens, UniProt P11309)
Construct: host or cells: Sf9 insect cells (baculovirus)
Sequence (P11309 whole entry): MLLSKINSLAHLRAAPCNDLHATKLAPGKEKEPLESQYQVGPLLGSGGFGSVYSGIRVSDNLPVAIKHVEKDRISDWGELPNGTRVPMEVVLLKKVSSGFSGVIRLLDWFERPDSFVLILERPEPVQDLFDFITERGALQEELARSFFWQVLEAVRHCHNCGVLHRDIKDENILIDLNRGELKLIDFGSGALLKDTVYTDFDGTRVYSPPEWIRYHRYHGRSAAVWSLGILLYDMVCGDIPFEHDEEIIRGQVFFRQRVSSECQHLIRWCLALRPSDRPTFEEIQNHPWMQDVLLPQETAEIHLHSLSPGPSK
run.description: ADP-Glo kinase assay, primary screen
Format: biochemical
experimental.parameters: 10 µM, n=2; read-out: % of residual activity Hs_PIM1
readout.type: remaining activity at 10 µM (%)
Field: numeric (%). Do not append units.

Entry Cc1ccc(-n2cc(COc3cccc4cnc(Nc5cc(Cl)cc(Cl)c5)nc34)nn2)c([N+](=O)[O-])c1 [7b] ; remaining activity at 10 µM = 84

Entry CC(C)(C)OC(=O)N[C@H]1CC[C@@H](n2cc(COc3cccc4cnc(Nc5cc(Cl)cc(Cl)c5)nc34)nn2)CC1 [15b] ; remaining activity at 10 µM = 73

Entry Cc1ccc(-n2cc(COc3cccc4cnc(Nc5ccccc5)nc34)nn2)c([N+](=O)[O-])c1 [7a] ; remaining activity at 10 µM = 60

Entry N[C@H]1CC[C@@H](n2cc(COc3cccc4cnc(Nc5cc(Cl)cc(Cl)c5)nc34)nn2)CC1 [16b] ; remaining activity at 10 µM = 15

====

measured.target: MmCLK1 (Mus musculus)
Construct: host or cells: bacteria
Sequence (P22518 whole entry): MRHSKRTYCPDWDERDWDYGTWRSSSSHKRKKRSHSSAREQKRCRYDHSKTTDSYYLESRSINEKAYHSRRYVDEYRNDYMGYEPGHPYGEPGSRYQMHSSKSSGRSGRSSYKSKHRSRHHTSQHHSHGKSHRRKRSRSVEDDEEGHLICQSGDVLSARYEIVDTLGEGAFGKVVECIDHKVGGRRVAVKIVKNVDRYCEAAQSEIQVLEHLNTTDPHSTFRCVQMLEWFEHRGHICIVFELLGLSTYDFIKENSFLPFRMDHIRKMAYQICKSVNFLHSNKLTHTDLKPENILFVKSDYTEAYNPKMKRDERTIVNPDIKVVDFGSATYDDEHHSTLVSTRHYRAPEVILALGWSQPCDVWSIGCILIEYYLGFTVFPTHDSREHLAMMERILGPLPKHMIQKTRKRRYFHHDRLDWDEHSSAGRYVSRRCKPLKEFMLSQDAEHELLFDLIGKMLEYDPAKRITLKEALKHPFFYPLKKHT
run.description: ADP-Glo kinase assay
Type: biochemical
experimental.parameters: 10 µM, n=2; read-out: % of residual activity Mm_CLK1
For each of the compounds below, state its remaining activity at 10 µM.
Field: numeric (%). Do not append units.

Entry CC(C)(C)OC(=O)N[C@H]1CC[C@@H](n2cc(COc3cccc4cnc(Nc5cccc(Cl)c5)nc34)nn2)CC1 [15a] ; remaining activity at 10 µM = 60

Entry N[C@H]1CC[C@@H](n2cc(COc3cccc4cnc(Nc5cc(Cl)cc(Cl)c5)nc34)nn2)CC1 [16b] ; remaining activity at 10 µM = 8

Entry Cc1ccc(-n2cc(COc3cccc4cnc(Nc5cc(Cl)cc(Cl)c5)nc34)nn2)c([N+](=O)[O-])c1 [7b] ; remaining activity at 10 µM = 17

Entry CC(C)(C)OC(=O)N[C@H]1CC[C@H](n2cc(COc3cccc4cnc(Nc5cccc(Cl)c5)nc34)nn2)CC1 [18a] ; remaining activity at 10 µM = 70

Entry N[C@H]1CC[C@H](n2cc(COc3cccc4cnc(Nc5cc(Cl)cc(Cl)c5)nc34)nn2)CC1 [19b] ; remaining activity at 10 µM = 7

Entry O=[N+]([O-])c1cc(O)ccc1-n1cc(COc2cccc3cnc(Nc4cccc(Cl)c4)nc23)nn1 [12c] ; remaining activity at 10 µM = 20

Entry Cc1ccc(-n2cc(COc3cccc4cnc(Nc5ccccc5)nc34)nn2)c([N+](=O)[O-])c1 [7a] ; remaining activity at 10 µM = 30

Entry CC(C)(C)OC(=O)N[C@H]1CC[C@H](n2cc(COc3cccc4cnc(Nc5cc(Cl)cc(Cl)c5)nc34)nn2)CC1 [18b] ; remaining activity at 10 µM = 72

====

measured.target: Hs_CK1ε (Homo sapiens, UniProt P49674)
Construct: host or cells: Sf9 insect cells (baculovirus)
Sequence (P49674 whole entry): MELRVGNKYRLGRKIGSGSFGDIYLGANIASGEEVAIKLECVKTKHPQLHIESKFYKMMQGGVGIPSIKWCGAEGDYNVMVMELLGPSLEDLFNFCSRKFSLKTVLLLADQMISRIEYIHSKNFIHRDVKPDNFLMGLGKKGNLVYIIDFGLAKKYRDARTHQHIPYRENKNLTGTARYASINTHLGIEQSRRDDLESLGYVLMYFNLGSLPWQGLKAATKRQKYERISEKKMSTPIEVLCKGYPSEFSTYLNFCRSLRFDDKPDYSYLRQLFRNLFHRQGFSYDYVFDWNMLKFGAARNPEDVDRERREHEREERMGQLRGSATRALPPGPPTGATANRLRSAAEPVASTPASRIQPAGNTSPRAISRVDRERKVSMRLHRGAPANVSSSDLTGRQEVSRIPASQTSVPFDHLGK
run.description: ADP-Glo kinase assay, primary screen
Format: biochemical
experimental.parameters: 1 µM, n=2; read-out: % of residual activity Hs_CK1ε
For each of the compounds below, state its remaining activity at 1 µM.
Field: numeric (%). Do not append units.

Entry Cc1ccc(-n2cc(COc3cccc4cnc(Nc5cc(Cl)cc(Cl)c5)nc34)nn2)c([N+](=O)[O-])c1 ; remaining activity at 1 µM = 81

Entry O=C(O)c1ccc(-n2cc(COc3cccc4cnc(Nc5cccc(Cl)c5)nc34)nn2)c([N+](=O)[O-])c1 [12g] ; remaining activity at 1 µM = 98

Entry N[C@H]1CC[C@@H](n2cc(COc3cccc4cnc(Nc5cc(Cl)cc(Cl)c5)nc34)nn2)CC1 [16b] ; remaining activity at 1 µM = 82
